Property: pIC50; scope: individual compounds
Study system: recombinant full-length USP7 (Homo sapiens)
Construct: A 25 μl reaction volume containing recombinant full-length USP7 (62 pM)
Assay comment: USP7-mediated ubiquitin-rhodamine cleavage assay
Format: biochemical
Study conditions: recombinant full-length USP7 62 pM; ubiquitin-rhodamine 100 nM; 30-minute incubation with compound, 1 hour reaction at room temperature; read-out: Potency: USP7 IC50
pIC50: −log10 of the molar value.

Please review the entries below; each comes with its answer.
CCC(O)c1cc2ncnc(-c3cc(Cl)cc(C)c3O[C@@H]3CNC[C@@H]3F)c2s1 (stereo partly drawn)
5.00 to 6.00
Cc1cc(Cl)cc(-c2ccnc3cc(Cn4cnc5ccccc5c4=O)sc23)c1O[C@H]1CCCNC1
5.00 to 6.00
Cc1cc(Cl)cc(-c2ccnc3cc(CN4C(=O)N(C)C(C)(C)C4=O)sc23)c1O[C@@H]1CNC[C@@H]1F
> 6.00
Cc1cc(Cl)cc(-c2ccnc3ccsc23)c1OCC1(C)CNC1
> 6.00

Reported pIC50 for OCc1cc2nccc(-c3cc(Cl)cc(Br)c3O[C@H]3CCCNC3)c2s1 : what is it?
5.00 to 6.00

# lookup: pIC50 of Cc1cc(C#N)cc(-c2ccnc3cc(CN4C(=O)CCC4=O)sc23)c1OCC1(C)CNC1
> 6.00

GET /values?readout=pIC50&item= Cc1cc(Cl)cc(-c2ccnc3cc(CN4C(=O)C5CC5C4=O)sc23)c1O[C@@H]1CNC[C@@H]1F (stereo partly drawn)
> 6.00

I am curious: what pIC50 value has been reported for Cc1cc(Cl)cc(-c2ccnc3cc(CN4C(=O)CN(C)C4=O)sc23)c1O[C@@H]1CNC[C@@H]1F ?
5.00 to 6.00

Could you tell me which pIC50 is on file for CCC(O)c1cc2ncnc(-c3cc(C#N)cc(C)c3O[C@@H]3CNC[C@@H]3F)c2s1 (stereo partly drawn) ?
> 6.00

Any idea what its pIC50 is? The compound is Cc1cc(Cl)cc(-c2ccnc3cc(CN4C(=O)CC5(CCC5)C4=O)sc23)c1O[C@H]1CCCNC1
> 6.00

Give its pIC50 value. Item: Cc1cc(Cl)cc(-c2ccnc3cc(CN4C(=O)C5C(C4=O)C5(C)C)sc23)c1O[C@H]1CC[C@H](C)NC1 (stereo partly drawn)
> 6.00

Tell me the measured pIC50 of Cc1cc(Cl)cc(-c2ccnc3cc(CN4C(=O)C5C(C4=O)C5(C)C)sc23)c1O[C@@H]1CCNC[C@@H]1F (stereo partly drawn) [Example 391] , please.
> 6.00

====

Item-by-item account of pIC50
Study system: recombinant full-length USP7 (Homo sapiens, UniProt Q93009)
Construct: A 25 μl reaction volume containing recombinant full-length USP7 (62 pM)
Sequence (Q93009 whole entry): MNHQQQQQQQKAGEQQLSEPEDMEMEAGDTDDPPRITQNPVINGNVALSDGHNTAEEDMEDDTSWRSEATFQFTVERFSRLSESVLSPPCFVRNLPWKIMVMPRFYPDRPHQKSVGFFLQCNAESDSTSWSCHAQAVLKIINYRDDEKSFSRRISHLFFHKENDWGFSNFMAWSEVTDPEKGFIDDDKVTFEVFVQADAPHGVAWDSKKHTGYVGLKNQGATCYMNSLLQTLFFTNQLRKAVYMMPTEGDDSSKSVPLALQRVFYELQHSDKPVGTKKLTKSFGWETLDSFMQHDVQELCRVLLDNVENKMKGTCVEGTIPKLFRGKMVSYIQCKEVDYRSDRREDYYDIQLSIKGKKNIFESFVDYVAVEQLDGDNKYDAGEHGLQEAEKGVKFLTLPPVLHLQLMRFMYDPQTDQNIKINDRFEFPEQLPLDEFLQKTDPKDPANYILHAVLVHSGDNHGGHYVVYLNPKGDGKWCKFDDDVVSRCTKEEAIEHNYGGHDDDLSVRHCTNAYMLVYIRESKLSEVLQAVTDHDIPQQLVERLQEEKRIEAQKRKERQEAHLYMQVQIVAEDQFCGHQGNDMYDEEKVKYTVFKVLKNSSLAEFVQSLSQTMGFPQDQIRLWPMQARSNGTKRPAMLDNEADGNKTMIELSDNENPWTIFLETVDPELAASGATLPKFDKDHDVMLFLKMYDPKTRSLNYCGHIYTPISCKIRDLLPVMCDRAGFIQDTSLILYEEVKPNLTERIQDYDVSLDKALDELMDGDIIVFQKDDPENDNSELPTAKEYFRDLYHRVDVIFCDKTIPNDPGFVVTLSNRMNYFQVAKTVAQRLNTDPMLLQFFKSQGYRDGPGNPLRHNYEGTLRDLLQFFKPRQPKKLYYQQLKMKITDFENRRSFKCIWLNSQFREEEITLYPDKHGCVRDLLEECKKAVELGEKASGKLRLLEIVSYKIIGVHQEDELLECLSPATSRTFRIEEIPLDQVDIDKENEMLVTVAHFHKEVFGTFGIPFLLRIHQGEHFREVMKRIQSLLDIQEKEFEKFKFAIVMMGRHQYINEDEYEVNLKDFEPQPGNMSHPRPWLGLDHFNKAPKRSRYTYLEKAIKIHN
Assay comment: USP7-mediated ubiquitin-rhodamine cleavage assay
Format: biochemical
Study conditions: recombinant full-length USP7 62 pM; ubiquitin-rhodamine 100 nM; 30-minute incubation with compound, 1 hour reaction at room temperature; read-out: Potency: USP7 IC50
Protocol: In the case of the USP7 deubiquitylating enzyme, the IC50 of an USP7 inhibiting compound is the concentration of the compound that inhibits 50% of the activity observed in a USP7-mediated ubiquitin-rhodamine cleavage assay. For the USP7 inhibitors disclosed herein, their potency was measured using the following test method. […]
pIC50: −log10 of the molar value.

Known pIC50 results, listed for orientation:
CCC(O)c1cc2nccc(-c3cc(Cl)cc(C)c3OC3CCCNCC3)c2s1 (centres unmarked) [Example 267]
5.00 to 6.00
Cc1cc(Cl)cc(-c2ccnc3cc(Cn4c(=O)ccn(C)c4=O)sc23)c1O[C@H]1C[C@H](N)C1 [Example 7]
> 6.00
Cc1cc(Cl)cc(-c2ccnc3c(F)c(CO)sc23)c1O[C@@H]1CNC[C@@H]1F [Example 156]
5.00 to 6.00
Cc1cc(Cl)cc(-c2ncnc3cc(CN4C(=O)CSC4=O)sc23)c1O[C@H]1CCCNC1 [Example 250]
> 6.00

Recorded pIC50 for Cc1cc(Cl)cc(-c2ccnc3cc(CN4C(=O)CCC4=O)sc23)c1O[C@@H]1CNC[C@@H]1CO [Example 98] with recombinant full-length USP7 (Homo sapiens, UniProt Q93009), please?
> 6.00

====

Study system: recombinant full-length USP7 (Homo sapiens)
Construct: A 25 μl reaction volume containing recombinant full-length USP7 (62 pM)
Assay comment: USP7-mediated ubiquitin-rhodamine cleavage assay
Format: biochemical
Study conditions: recombinant full-length USP7 62 pM; ubiquitin-rhodamine 100 nM; 30-minute incubation with compound, 1 hour reaction at room temperature; read-out: Potency: USP7 IC50
pIC50: −log10 of the molar value.
Each item that follows carries a reported pIC50.

Can you share its pIC50? I mean this compound: Cc1cc(Cl)cc(-c2ccnc3cc(CN4C(=O)C5C(C4=O)C5(C)C)sc23)c1O[C@H]1CCNC[C@H]1F (stereo partly shown)
> 6.00

Item Cc1cc(Cl)cc(-c2ccnc3cc(CO)sc23)c1OC[C@@H]1CNCCN1 has what recorded pIC50?
4.52 to 5.00

Value lookup for pIC50; key = Cc1cc(Cl)cc(-c2ccnc3cc(Cn4c(=O)ccn(C)c4=O)sc23)c1OC1CCNCC1
> 6.00

# get_value(readout='pIC50', item= Cc1cc(Cl)cc(-c2ccnc3cc(CN4C(=O)CCC4=O)sc23)c1O[C@@H]1CN[C@H](CO)C1 )
> 6.00

====

Study system: recombinant full-length USP7 (Homo sapiens, UniProt Q93009)
Construct: A 25 μl reaction volume containing recombinant full-length USP7 (62 pM)
Assay comment: USP7-mediated ubiquitin-rhodamine cleavage assay
Format: biochemical
Study conditions: recombinant full-length USP7 62 pM; ubiquitin-rhodamine 100 nM; 30-minute incubation with compound, 1 hour reaction at room temperature; read-out: Potency: USP7 IC50
pIC50: −log10 of the molar value.
Experimental readout: pIC50

Recorded results for 10 compounds are shown here.
CCC(O)c1cc2nccc(-c3cc(Cl)cc(C)c3OC(C)C3CNC3)c2s1 (stereo not shown)
4.52 to 5.00
Cc1cc(Cl)cc(-c2ccnc3cc([C@H](C)N4C(=O)C5CC5C4=O)sc23)c1O[C@H]1CCCNC1 (stereo partly shown)
> 6.00
Cc1cc(Cl)cc(-c2ccnc3cc(CO)sc23)c1OC1CC2(CNC2)C1
4.52 to 5.00
Cc1cc(Cl)cc(-c2ccnc3cc(CO)sc23)c1OC1CCC12CNC2 (stereo not shown)
5.00 to 6.00
CCC(O)c1cc2ncnc(-c3cc(Cl)cc(C)c3OCC3CNC3)c2s1 (stereo not shown)
5.00 to 6.00
CCN1C[C@H](F)[C@H](Oc2c(C)cc(Cl)cc2-c2ccnc3cc(CN4C(=O)CCC4=O)sc23)C1
> 6.00
OCc1cc2nccc(-c3cc(Cl)cc(C4CC4)c3OCC3CNC3)c2s1
5.00 to 6.00
CCN1C[C@H]2C[C@@H]1[C@H](Oc1c(C)cc(Cl)cc1-c1ccnc3cc(CN4C(=O)C5CC5C4=O)sc13)C2 (stereo partly shown)
> 6.00
CN[C@H]1CC[C@H](Oc2c(C)cc(Cl)cc2-c2ccnc3cc(CN4C(=O)CCC4=O)sc23)CC1
> 6.00
Cc1cc(Cl)cc(-c2ccnc3ccsc23)c1O[C@H]1CCCNC1
4.52 to 5.00

Under recombinant full-length USP7 (Homo sapiens, UniProt Q93009): pIC50 value of Cc1cc(Cl)cc(-c2ccnc3cc(CN4C(=O)CCC4=O)sc23)c1O[C@H]1C[C@H]2CN[C@@H]1C2 ?
> 6.00

# query: pIC50 | item Cc1cc(Cl)cc(-c2ccnc3cc(CN4C(=O)CCCC4C(F)(F)F)sc23)c1O[C@@H]1CNC[C@@H]1F (stereo partly shown) | system: recombinant full-length USP7 (Homo sapiens, UniProt Q93009)
5.00 to 6.00

Please state recorded pIC50 (tested on recombinant full-length USP7 (Homo sapiens, UniProt Q93009)) of Cc1cc(Cl)cc(-c2ccnc3cc(CN4C(=O)C5CC5C4=O)sc23)c1OC1CCNC1C (stereo not shown)
> 6.00

Write down the reported pIC50 of O=C1CCC(=O)N1Cc1cc2nccc(-c3cc(Cl)cc(C(F)(F)F)c3O[C@@H]3CNC[C@@H]3F)c2s1 , test system: recombinant full-length USP7 (Homo sapiens, UniProt Q93009).
> 6.00

API: value(readout=pIC50, system=recombinant full-length USP7 (Homo sapiens, UniProt Q93009)) for record CCC(O)c1cc2nccc(-c3cccc(C)c3OC3CCNCC3)c2s1 (stereo not shown)
4.52 to 5.00

GET /values?readout=pIC50&system=recombinant full-length USP7 (Homo sapiens, UniProt Q93009)&item= Cc1cc(Cl)cc(-c2ncnc3cc(CN4C(=O)C5C(C4=O)C5(C)C)sc23)c1O[C@@H]1CNCC(C)(C)C1 (stereo partly shown)
> 6.00

Please tell me: pIC50 of Cc1cc(Cl)cc(-c2ccnc3cc(CN4C(=O)C5C(C4=O)C5(C)C)sc23)c1OC1CNCC(C)(C)C1 (stereo not shown) , system recombinant full-length USP7 (Homo sapiens, UniProt Q93009)?
> 6.00

Observed pIC50 on recombinant full-length USP7 (Homo sapiens, UniProt Q93009) for Cc1cc(Cl)cc(-c2ccnc3cc(CO)sc23)c1O[C@@H]1CN[C@@H](CO)C1 , please.
4.52 to 5.00

Under recombinant full-length USP7 (Homo sapiens, UniProt Q93009): pIC50 value of Cc1cc(Cl)cc(-c2ccnc3cc(CO)sc23)c1O[C@H]1C[C@H]2CC[C@@H](C1)N2 ?
5.00 to 6.00
